// data source = patent EP0494754A1

Test system: P. falciparum
test-description: Inhibition of growth of P. falciparum in red cell culture (tritiated hypoxanthine uptake, continuous exposure to chelator)
Assay type: cell-based
conditions-used: Plasmodium falciparum; further study; method not detailed; read-out: dosage level at which marked growth inhibition was observed
Quick reference for minimal effective concentration among some compounds
Output spec: scalar in µM, unitless text.

Cc1c(O)c(=O)ccn1CCC(=O)O [compound 1] = 0.1

Request: // lookup minimal effective concentration for Cn1ccc(=O)c(O)c1CC(=O)O [(5)]
Response: 0.5

Request: Now this one: Cc1c(O)c(=O)ccn1CCCC(=O)O [(16)]
Response: 0.5

Request: Now this one: CCc1c(O)c(=O)ccn1CCC(=O)O [(12)]
Response: 0.5

Request: Now this one: Cc1c(O)c(=O)ccn1CCS(=O)(=O)O
Response: 1
